Biological target: Cytochrome P450 2C9 (Homo sapiens) (UniProt P11712)
Sequence (P11712 whole entry, looked up): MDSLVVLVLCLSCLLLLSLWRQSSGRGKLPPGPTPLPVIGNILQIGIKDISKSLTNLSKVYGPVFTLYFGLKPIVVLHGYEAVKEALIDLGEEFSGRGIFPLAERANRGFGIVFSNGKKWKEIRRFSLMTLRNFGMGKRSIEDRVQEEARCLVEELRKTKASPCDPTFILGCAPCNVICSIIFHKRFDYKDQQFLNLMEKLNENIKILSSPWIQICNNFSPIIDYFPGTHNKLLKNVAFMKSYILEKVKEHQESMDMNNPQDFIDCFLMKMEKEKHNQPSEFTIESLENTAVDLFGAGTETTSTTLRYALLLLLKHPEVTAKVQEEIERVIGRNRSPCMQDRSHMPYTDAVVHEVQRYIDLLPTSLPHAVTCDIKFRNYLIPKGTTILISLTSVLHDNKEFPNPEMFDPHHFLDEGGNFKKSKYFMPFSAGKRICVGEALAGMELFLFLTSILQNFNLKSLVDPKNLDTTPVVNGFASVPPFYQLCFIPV
Test: Cytochrome panel assay with activity outcomes
Settings: recombinant CYP, pro-luciferin dealkylation, luminescence, p450-cyp2c9; series mostly up to 57.1 µM
Out of some 16,000 compounds screened, about 4,000 (25%) were called active. Inconclusive results (about 26%) are left out. Calls come from the whole dose curve; as a rule, active = well fitted curve in the direction sought with a large enough effect; inconclusive = small, poorly fitted or top-dose-only effect, or effect the other way; inactive = no such curve, though single readings can be large or run the other way. Not all results are given here.
The categories you may choose from are active, inactive

Examples with answers:
>  <molecule>
Cc1ccc2nc(N/N=C/c3ccccc3C#N)nc(-c3ccccc3)c2c1

>  <experimental.system>
Cytochrome P450 2C9 (Homo sapiens) (UniProt P11712)

>  <class.assignment>
active

$$$$
>  <molecule>
CCOc1c2ccc(C(=O)NCc3ccc4c(c3)OCO4)cc2nn1CC

>  <experimental.system>
Cytochrome P450 2C9 (Homo sapiens) (UniProt P11712)

>  <class.assignment>
active

$$$$
>  <molecule>
Cc1ccc2nc(Nc3ccccc3O)nc(-c3ccccc3)c2c1

>  <experimental.system>
Cytochrome P450 2C9 (Homo sapiens) (UniProt P11712)

>  <class.assignment>
active

$$$$
>  <molecule>
CCCOc1ccc(N2C(=O)CC(S/C(N)=N/N=C(\C)c3cccs3)C2=O)cc1 (configuration not stated)

>  <experimental.system>
Cytochrome P450 2C9 (Homo sapiens) (UniProt P11712)

>  <class.assignment>
active

$$$$
>  <molecule>
O=C1c2ccccc2C(=O)N1CC1c2ccccc2CCN1S(=O)(=O)c1ccccc1 (configuration not stated)

>  <experimental.system>
Cytochrome P450 2C9 (Homo sapiens) (UniProt P11712)

>  <class.assignment>
active

$$$$
>  <molecule>
COc1ccc(-n2c(=O)c(-c3cccs3)nc3cnc(N4CCN(C)CC4)nc32)cc1

>  <experimental.system>
Cytochrome P450 2C9 (Homo sapiens) (UniProt P11712)

>  <class.assignment>
inactive

$$$$

Please share the test call associated with COc1ccc(N2C(=O)CC(S/C(N)=N/N=C(\C)c3cccs3)C2=O)cc1 (configuration not stated) .
active

Please share the test call associated with `COc1ccccc1CNCC(O)(c1ccc(Cl)cc1)c1ccc(Cl)cc1` .
active

Please share the test call associated with CCOC(=O)/C(C#N)=C1/SC(CC)C(=O)N1c1ccc(Br)cc1 (configuration not stated) .
active

Please share the test call associated with `COc1ccccc1CNCc1cccs1` .
inactive

Please share the test call associated with `Cc1nc(N/N=C/c2ccccc2)nc(N(C)c2ccccc2)c1[N+](=O)[O-]` .
inactive

Please share the test call associated with `OC[C@H]1O[C@H](n2cnc3c(NC4CCCC4)nc(Cl)nc32)[C@@H](O)[C@@H]1O` .
inactive

====

Target: Cytochrome P450 2C9 (Homo sapiens)
Assay: Cytochrome panel assay with activity outcomes
Conditions: recombinant CYP, pro-luciferin dealkylation, luminescence, p450-cyp2c9; series mostly up to 57.1 µM
In all, about 16,000 compounds went through this assay and about 4,000 (25%) were called active. Inconclusive results (about 26%) are left out. Calls come from the whole dose curve; as a rule, active = well fitted curve in the direction sought with a large enough effect; inconclusive = small, poorly fitted or top-dose-only effect, or effect the other way; inactive = no such curve, though single readings can be large or run the other way. These entries were drawn from the full list.
The categories you may choose from are active, inactive

>  <compound>
Cc1cccc(NC(=S)NC(=O)c2cccs2)n1

>  <experimental.system>
Cytochrome P450 2C9 (Homo sapiens)

>  <class.assignment>
active

$$$$
>  <compound>
CCCc1nnc(SCC(=O)N2CCCCC2)n1CC1CCCO1 (configuration not stated)

>  <experimental.system>
Cytochrome P450 2C9 (Homo sapiens)

>  <class.assignment>
inactive

$$$$

Please share the test call associated with `CCOC(=O)c1cc2c(=O)n3ccccc3nc2n(CCCOC)c1=NC(=O)C(C)(C)C` .
active

Please share the test call associated with `Oc1c(CN2CCCCC2)cc(Br)c2cccnc12` .
inactive

Please share the test call associated with `Cc1cccc(NC(=O)c2cc(N3C(=O)CCC3=O)ccc2Cl)n1` .
inactive

====

Target: Cytochrome P450 2C9 (Homo sapiens) (UniProt P11712)
Assay: Cytochrome panel assay with activity outcomes
Conditions: recombinant CYP, pro-luciferin dealkylation, luminescence, p450-cyp2c9; series mostly up to 57.1 µM
Hit rate of the full screen: of about 16,000 compounds, about 4,000 (25%) were called active. Not shown: some 26% with an inconclusive outcome. Calls follow the shape of the dose curve; as a rule, active = well fitted curve in the direction sought with a large enough effect; inconclusive = small, poorly fitted or top-dose-only effect, or effect the other way; inactive = no such curve, though single readings can be large or run the other way. The list is a sample of the results.
The categories you may choose from are active, inactive

Examples with answers:
>  <molecule>
Cc1ccc(-c2ccc(/C=N\NC(=O)c3cc4c(ccc5ccccc54)o3)o2)cc1[N+](=O)[O-]

>  <class.assignment>
inactive

$$$$
>  <molecule>
NC(=O)N1c2ccccc2C=Cc2ccccc21

>  <class.assignment>
inactive

$$$$
>  <molecule>
Cc1ccc(S(=O)(=O)/C(C#N)=C/c2c(N3CC(C)OC(C)C3)nc3ccccn3c2=O)cc1 (stereo not given)

>  <class.assignment>
active

$$$$

Please share the test call associated with `O=C(C[C@@H]1C=Cc2ccccc2N1C(=O)c1ccccc1)c1ccccc1` .
active

Please share the test call associated with `CN(C(=O)c1c(O)c2ccccc2n(C)c1=O)c1ccccc1` .
inactive

Please share the test call associated with `CCOc1ccc(N2C(=O)CN=C2Nc2ccccc2Cl)cc1` .
inactive

Please share the test call associated with COC(=O)CCSc1cc([N+](=O)[O-])cc2c1c(C1OCCS1)nn2-c1ccccc1 (stereo not given) .
active

====

Target: Cytochrome P450 2C9 (Homo sapiens) (UniProt P11712)
Test: Cytochrome panel assay with activity outcomes
Conditions: recombinant CYP, pro-luciferin dealkylation, luminescence, p450-cyp2c9; series mostly up to 57.1 µM
Among all 16,000 compounds or so, about 4,000 (25%) were called active. Not shown: some 26% with an inconclusive outcome. The list is a sample of the results.
observed.property: AC50

Solved entries:
>  <molecule>
C[N+](C)(C)CCCCCNCC12CC3CC(CC(C3)C1)C2

>  <AC50>
inactive

$$$$
>  <molecule>
CCN(CC)CCCCCCCCOC(=O)c1cc(OC)c(OC)c(OC)c1

>  <AC50>
inactive

$$$$
>  <molecule>
Cc1cccc2sc(NC(=O)C3c4ccccc4Oc4ccccc43)nc12

>  <AC50>
1.26 µM (active)

$$$$
>  <molecule>
O=C(Nc1cccnc1Cl)C1c2ccccc2Oc2ccccc21

>  <AC50>
1.12 µM (active)

$$$$
>  <molecule>
CCC(NC(=O)Nc1cc(OC)c(OC)c(OC)c1)(C(F)(F)F)C(F)(F)F

>  <AC50>
14.1 µM (active)

$$$$
>  <molecule>
O=C(c1csnn1)N1CCC2(CCN(Cc3nccs3)CC2)CC1

>  <AC50>
inactive

$$$$
>  <molecule>
Cc1ccccc1NC(=O)c1cnc(Nc2nc3ccccc3s2)nc1C

>  <AC50>
inactive

$$$$
>  <molecule>
CSc1c(-c2ccccc2)nc2ccc(Cl)cc2c1C(=O)O

>  <AC50>
0.794 µM (active)

$$$$

Fill: AC50 (Cytochrome P450 2C9 (Homo sapiens) (UniProt P11712)) for this molecule `Fc1ccc(-c2ccnc3nc(N4CCOCC4)nn23)cc1`
inactive

Fill: AC50 (Cytochrome P450 2C9 (Homo sapiens) (UniProt P11712)) for this molecule OC(Cc1nc2ccccc2[nH]1)c1ccccc1Cl (configuration not stated)
14.1 µM (active)

Fill: AC50 (Cytochrome P450 2C9 (Homo sapiens) (UniProt P11712)) for this molecule `Cc1oc2c(C)c(O)ccc2c(=O)c1-c1ccc2ccccc2n1`
inactive

Fill: AC50 (Cytochrome P450 2C9 (Homo sapiens) (UniProt P11712)) for this molecule CCCS(=O)(=O)N1CCN(CC2CC=CCC2)CC1 (configuration not stated)
inactive

====

Biological target: Cytochrome P450 2C9 (Homo sapiens) (UniProt P11712)
Experiment: Cytochrome panel assay with activity outcomes
Settings: recombinant CYP, pro-luciferin dealkylation, luminescence, p450-cyp2c9; series mostly up to 57.1 µM
The campaign covered roughly 16,000 compounds. About 4,000 (25%) were called active. Roughly 26% stayed inconclusive and do not appear here. Calls come from the whole dose curve; as a rule, active = well fitted curve in the direction sought with a large enough effect; inconclusive = small, poorly fitted or top-dose-only effect, or effect the other way; inactive = no such curve, though single readings can be large or run the other way. The list is a sample of the results.
The categories you may choose from are class 1 = active, class 0 = inactive

>  <molecule>
COCCN=C1Sc2nc3c(C)cccc3cc2CN1Cc1ccco1

>  <class.assignment>
class 1

$$$$
>  <molecule>
Cn1cc(-c2nc3cnc(N4CCNCC4)nc3n(-c3ccccc3)c2=O)c2ccccc21

>  <class.assignment>
class 0

$$$$
>  <molecule>
COc1cc(N=c2ssnc2Cl)cc(OC)c1OC

>  <class.assignment>
class 1

$$$$

Please share the test call associated with `C=CCn1c(COc2ccccc2)nnc1SCC(=O)N/N=C/c1ccc(C)cc1` .
class 1

Please share the test call associated with `CCOc1ccc(C2=Nn3c(nnc3-c3ccco3)SC2)cc1` .
class 1

Please share the test call associated with `CCc1ccccc1NC(=O)CSc1nc(-c2ccccc2)nn1C(=O)c1cccc([N+](=O)[O-])c1` .
class 1

Please share the test call associated with `Cc1cc(NC(=O)NC(=O)c2ccc(F)cc2F)n[nH]1` .
class 0

Please share the test call associated with CCOc1ccc(N(C(C)C(=O)N/N=C(\C)c2cccc(NC(=O)c3ccccc3)c2)S(C)(=O)=O)cc1 (stereo not given) .
class 1

Please share the test call associated with `CO/N=C(\C(=O)N[C@@H]1C(=O)N2C(C(=O)O)=C(COC(C)=O)CS[C@@H]12)c1csc(N)n1` .
class 0

Please share the test call associated with `COc1ccc(O)c(/C=N/NC(=O)CSc2nnc(C)n2-c2ccccc2)c1` .
class 0

Please share the test call associated with CCC(C)NC(=O)C1CCN(C(=O)c2ccccc2)CC1 (stereo not given) .
class 0

Please share the test call associated with CC(C)C(NC(=O)C1CCCCC1)C(=O)NC1CCN(Cc2ccccc2)CC1 (stereo not given) .
class 0

Please share the test call associated with `CN(CCc1ccc(Cl)c(Cl)c1)C[C@@H](O)COc1ccc(NS(C)(=O)=O)cc1` .
class 1

Please share the test call associated with `COc1ccccc1NC(=O)COC(=O)c1ccc(S(=O)(=O)NCc2ccco2)cc1` .
class 1

Please share the test call associated with `Cn1cc(-c2nc3cnc(N4CCNCC4)nc3n(C3CC3)c2=O)c2ccccc21` .
class 1

Please share the test call associated with CCC(C)NC(=O)Cn1cnc2sc(C)cc2c1=O (stereo not given) .
class 0

Please share the test call associated with `Cn1cc(-c2nc3cncnc3n(C3CC3)c2=O)c2ccccc21` .
class 0
